The entries below come with measured IC50 values attached.
assayed system: human CXCR3 (N-delta 4) (Homo sapiens, UniProt P49682)
Construct: CD8 leader (N); Flag tag; expressed in transfected cells; membranes
Sequence (P49682 5-368 limits assumed): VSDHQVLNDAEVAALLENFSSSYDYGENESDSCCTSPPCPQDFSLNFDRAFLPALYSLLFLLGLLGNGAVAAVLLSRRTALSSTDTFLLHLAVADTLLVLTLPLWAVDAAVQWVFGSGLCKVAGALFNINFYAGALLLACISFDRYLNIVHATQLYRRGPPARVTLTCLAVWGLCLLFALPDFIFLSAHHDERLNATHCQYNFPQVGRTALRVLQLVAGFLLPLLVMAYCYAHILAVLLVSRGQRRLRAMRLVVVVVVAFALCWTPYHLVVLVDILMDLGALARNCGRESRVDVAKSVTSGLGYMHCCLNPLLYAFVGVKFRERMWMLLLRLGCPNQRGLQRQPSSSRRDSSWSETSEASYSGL
assay: Human CXCR3 (N-delta 4) Scintillation Proximity Assay (SPA), [125I] IP-10 binding
measurement setup: IC50 rating; [125I] IP-10 displacement, Ba/F3-hCXCR3 (N-delta 4) membranes

Measured IC50, CC[C@H]1CN(c2ncc(-c3ncc[nH]3)cc2Cl)CCN1C1CCN(Cc2ccc(Cl)cc2C(=O)OC)CC1 : < 0.025 µM

Measured IC50, CC[C@H]1CN(c2ncc(C3=NCCN3)cc2Cl)CCN1C1CCN(C(=O)c2ccc(Cl)nc2N)CC1 : < 0.025 µM

Measured IC50, CC[C@H]1CN(c2ncc(-c3ncc[nH]3)cc2Cl)CCN1C1CCN(C(=O)c2ccc(-n3cccc3)cc2)CC1 : < 0.025 µM

Measured IC50, CC[C@H]1CN(c2ncc(-c3nc(C(O)C(F)(F)F)c[nH]3)cc2Cl)CCN1C1CCN(C(=O)c2ccc(Cl)cc2)CC1 (stereo partly shown) : 0.025 to 0.1 µM

Measured IC50, CC[C@H]1CN(c2ncc(C3=NCCN3)cc2Cl)CCN1C1CCN(Cc2ccc(Cl)cc2C(=O)OC)CC1 : < 0.025 µM

Measured IC50, CC[C@H]1CN(c2ncc(-c3ncc[nH]3)cc2Cl)CCN1C1CCN(Cc2ccc(C#CC(C)(C)C)cc2)CC1 : < 0.025 µM

Measured IC50, CC[C@H]1CN(c2ncc(-c3nccn3C(c3ccccc3)(c3ccccc3)c3ccccc3)cc2Cl)CCN1C1CCN(Cc2ccc(Cl)cc2F)CC1 : > 0.1 µM
